TARGET_OF_ASSAY: Cannabinoid receptor 1 (Homo sapiens)
Sequence (P21554 whole entry): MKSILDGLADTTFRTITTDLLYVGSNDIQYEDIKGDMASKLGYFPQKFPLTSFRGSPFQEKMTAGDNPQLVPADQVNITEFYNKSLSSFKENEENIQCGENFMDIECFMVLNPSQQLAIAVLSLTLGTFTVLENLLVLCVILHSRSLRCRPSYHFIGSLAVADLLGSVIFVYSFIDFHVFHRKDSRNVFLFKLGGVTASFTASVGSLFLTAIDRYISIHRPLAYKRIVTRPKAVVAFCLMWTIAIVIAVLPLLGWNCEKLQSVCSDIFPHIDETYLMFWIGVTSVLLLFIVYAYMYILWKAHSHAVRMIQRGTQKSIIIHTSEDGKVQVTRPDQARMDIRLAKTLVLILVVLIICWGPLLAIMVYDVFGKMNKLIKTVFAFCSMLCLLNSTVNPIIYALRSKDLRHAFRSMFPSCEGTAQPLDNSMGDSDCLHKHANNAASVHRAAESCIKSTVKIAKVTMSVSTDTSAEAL
ASSAY_DETAILS: Agonist activity at human CB1 receptor expressed in Sf9 cells by GTP-europium binding assay
pEC50: −log10 of the molar value.

- INPUT_SMILES: "CCn1c2ccccc2c2cc(NC(=O)CCn3nnc(-c4ccccc4F)n3)ccc21"
  TARGET_OF_ASSAY: "Cannabinoid receptor 1 (Homo sapiens)"
  COMPARISON_OPERATOR: "<"
  pEC50: 5.00
- INPUT_SMILES: "CCn1c2ccccc2c2cc(NC(=O)CCn3cc(-c4ccccc4F)nn3)ccc21"
  TARGET_OF_ASSAY: "Cannabinoid receptor 1 (Homo sapiens)"
  COMPARISON_OPERATOR: "<"
  pEC50: 5.00
- INPUT_SMILES: "CCn1c2ccccc2c2cc(NC(=O)CCc3cc(-c4ccccc4F)[nH]n3)ccc21"
  TARGET_OF_ASSAY: "Cannabinoid receptor 1 (Homo sapiens)"
  COMPARISON_OPERATOR: "<"
  pEC50: 5.00
- INPUT_SMILES: "N#Cc1cc(NCCCc2nc(-c3ccc(F)cc3Cl)no2)cnc1OCC(F)(F)F"
  TARGET_OF_ASSAY: "Cannabinoid receptor 1 (Homo sapiens)"
  COMPARISON_OPERATOR: "="
  pEC50: 5.89
- INPUT_SMILES: "O=C(CCc1nc(-c2ccc(F)cc2Cl)no1)Nc1nc2ccc(OC(F)(F)F)cc2s1"
  TARGET_OF_ASSAY: "Cannabinoid receptor 1 (Homo sapiens)"
  COMPARISON_OPERATOR: "="
  pEC50: 5.72
- INPUT_SMILES: "Fc1ccc(-c2noc(CCCNc3cnc4ccc(OC(F)(F)F)cc4c3)n2)c(Cl)c1"
  TARGET_OF_ASSAY: "Cannabinoid receptor 1 (Homo sapiens)"
  COMPARISON_OPERATOR: "="
  pEC50: 5.96
- INPUT_SMILES: "CCn1c2ccccc2c2cc(NC(=O)CCc3nc(-c4ccccc4Cl)no3)ccc21"
  TARGET_OF_ASSAY: "Cannabinoid receptor 1 (Homo sapiens)"
  COMPARISON_OPERATOR: "<"
  pEC50: 5.00
- INPUT_SMILES: "CCn1c2ccccc2c2cc(NC(=O)CCc3noc(-c4ccccc4F)n3)ccc21"
  TARGET_OF_ASSAY: "Cannabinoid receptor 1 (Homo sapiens)"
  COMPARISON_OPERATOR: "<"
  pEC50: 5.00
- INPUT_SMILES: "O=C(CCc1nc(-c2ccc(F)cc2Cl)no1)Nc1ccc(C(F)(F)F)cc1Cl"
  TARGET_OF_ASSAY: "Cannabinoid receptor 1 (Homo sapiens)"
  COMPARISON_OPERATOR: "<"
  pEC50: 5.00
- INPUT_SMILES: "CCn1c2ccccc2c2cc(NC(=O)CCc3nc(-c4ccc(F)cc4C)no3)ccc21"
  TARGET_OF_ASSAY: "Cannabinoid receptor 1 (Homo sapiens)"
  COMPARISON_OPERATOR: "="
  pEC50: 5.85

* * *

Entries and their measured Emax follow.
TARGET_OF_ASSAY: Cannabinoid receptor 1 (Rattus norvegicus)
ASSAY_DETAILS: Agonist activity at rat recombinant CB1 receptor expressed in CHO-K1 cells assessed as inhibition of forskolin-stimulated intracellular cAMP level relative to CP-55940
Format: functional, cell-based
OBSERVATION_TYPE: Emax (%)

- INPUT_SMILES: "Fc1ccc(-c2noc(CCCOc3cnc4ccc(Cl)cc4c3)n2)c(Cl)c1"
  UNITS_LABEL: "%"
  OBS_VALUE: 98
- INPUT_SMILES: "Fc1ccc(-c2noc(CCCNc3nc4ccc(Cl)cc4s3)n2)c(Cl)c1"
  UNITS_LABEL: "%"
  OBS_VALUE: 45
- INPUT_SMILES: "CCn1c2ccccc2c2cc(NC(=O)CCc3nc(C4CCOCC4)no3)ccc21"
  UNITS_LABEL: "%"
  OBS_VALUE: 110
- INPUT_SMILES: "CCn1c2ccccc2c2cc(NC(=O)CCc3nc(-c4ccc(F)cc4C#N)no3)ccc21"
  UNITS_LABEL: "%"
  OBS_VALUE: 84
- INPUT_SMILES: "CC(C)(C)c1ncc(NC(=O)CCc2nc(-c3ccc(F)cc3Cl)no2)cn1"
  UNITS_LABEL: "%"
  OBS_VALUE: 67
- INPUT_SMILES: "O=C(CCc1nc(-c2ccc(F)cc2Cl)no1)Nc1nnc(N2CCCCC2)s1"
  UNITS_LABEL: "%"
  OBS_VALUE: 87
- INPUT_SMILES: "CCn1c2ccccc2c2cc(NC(=O)CCc3nc(-c4ccc(F)cc4Cl)no3)ccc21"
  UNITS_LABEL: "%"
  OBS_VALUE: 79
- INPUT_SMILES: "Fc1ccc(-c2noc(CCCNc3cnc4ccc(Cl)cc4c3)n2)c(Cl)c1"
  UNITS_LABEL: "%"
  OBS_VALUE: 85
- INPUT_SMILES: "CC(C)(C)c1cc(NC(=O)CCc2nc(-c3ccc(F)cc3Cl)no2)no1"
  UNITS_LABEL: "%"
  OBS_VALUE: 110
- INPUT_SMILES: "CC(C)(C)c1ncc(OCCCc2nc(-c3ccc(F)cc3Cl)no2)cn1"
  UNITS_LABEL: "%"
  OBS_VALUE: 86
- INPUT_SMILES: "CCn1c2ccccc2c2cc(NC(=O)CCc3nc(-c4ccc(F)cc4C)no3)ccc21"
  UNITS_LABEL: "%"
  OBS_VALUE: 81
- INPUT_SMILES: "O=C(CCc1nc(-c2ccc(F)cc2Cl)no1)Nc1cnc2ncc(Cl)cc2c1"
  UNITS_LABEL: "%"
  OBS_VALUE: 100
- INPUT_SMILES: "O=C(CCc1nc(-c2ccc(F)cc2Cl)no1)Nc1nc2ccc(OC(F)(F)F)cc2s1"
  UNITS_LABEL: "%"
  OBS_VALUE: 21
- INPUT_SMILES: "Fc1ccc(-c2noc(CCCNc3cnc4ccc(OC(F)(F)F)cc4c3)n2)c(Cl)c1"
  UNITS_LABEL: "%"
  OBS_VALUE: 120
- INPUT_SMILES: "O=C(CCc1nc(-c2ccc(F)cc2Cl)no1)Nc1cnc2ccc(Cl)cc2c1"
  UNITS_LABEL: "%"
  OBS_VALUE: 99
- INPUT_SMILES: "CCn1c2ccccc2c2cc(NC(=O)CCc3nc(-c4ccc(F)cc4)no3)ccc21"
  UNITS_LABEL: "%"
  OBS_VALUE: 65
